B1: Homeobox protein SIX3, residues 212 to 262; numbered along this chain, O95343 (parent)
chain: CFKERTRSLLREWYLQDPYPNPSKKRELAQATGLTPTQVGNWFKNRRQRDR

- Variants of: B1
- test protocol: abundance fitness (aPCA) (normalised: wild type 0, dead -1); higher = more abundant; growth selection in yeast, the domain comes from the species named
- settings: Homo sapiens
param class (str): category from abundance fitness; see ranges lower band: < -0.8; central band: ≥ -0.8 and < -0.4; upper band: ≥ -0.4

See these solved cases before continuing.
{"columns": ["variant annotation", "discrete label"],
 "data": [
  ["V39H", "lower band"],
  ["R26D", "central band"],
  ["T35V", "lower band"],
  ["K24S", "upper band"],
  ["L28K", "central band"],
  ["L34M", "upper band"],
  ["E27D", "upper band"],
  ["V39A", "lower band"],
  ["T35C", "central band"],
  ["A29T", "central band"]
]}

[ask] Which abundance fitness category applies to "P36C" here?
[reply] upper band

[ask] Which abundance fitness category applies to "T32R" here?
[reply] lower band
